system: myeloid leukemia patient primary cells Pat.14; experiment: cell viability (% survival relative to DMSO control); higher = less cytotoxic; settings: 100 nM; 72 h
Counter-ions that a name gives are not always drawn.
Observable: cell viability (%)
Provide only the numeric value, understood in %.

Worked examples follow.
Clc1cc(Cl)c(OCC#CI)cc1Cl [Haloprogin]
68.3
Oc1ncc(F)c(O)n1 [5-fluorouracil]
90.3
Nc1nc(O)c2c(CCc3ccc(C(=O)N[C@@H](CCC(=O)O)C(=O)O)cc3)c[nH]c2n1 [Pemetrexed]
90.2
NS(=O)(=O)c1ccc(S(=O)(=O)Nc2cccc3c(Cl)c[nH]c23)cc1 [Indisulam]
85.7
CC(C)(Cc1ccccc1)NCC(O)c1ccc(O)c(NS(C)(=O)=O)c1 (configuration not stated) [Zinterol hydrochloride]
91.3

(Q) Consider the molecule shown here: O=C(Cc1cccc(OC(F)(F)F)c1)Nc1ccc(CCCCc2nnc(NC(=O)Cc3ccccn3)s2)nn1 [CB-839] What is its recorded cell viability?
(A) 39.7

(Q) Same question for Cc1nnc(-c2ccc(N3CCC(Oc4ccccc4C(F)(F)F)CC3)nn2)s1 [MF-438] please.
(A) 87.8
